The values you see were collected from ChEMBL document CHEMBL1137660.

tested on: Escherichia coli; test: Antimicrobial activity against Escherichia coli BL21(DE3) carrying pET9a expressing Bacillus clausii beta-lactamase BCL1 by agar-dilution technique; format: functional
value type: MIC (µg/mL)
The reply should contain only the number, in µg/mL.

compound | value type | assay result
CO/N=C(\C(=O)N[C@@H]1C(=O)N2C(C(=O)O)=C(COC(C)=O)CS[C@H]12)c1csc(N)n1 [CEFOTAXIME] | MIC | 0.06

Output reported MIC of the compound CC(C)(O/N=C(\C(=O)N[C@@H]1C(=O)N2C(C(=O)[O-])=C(C[n+]3ccccc3)CS[C@H]12)c1csc(N)n1)C(=O)O [CEFTAZIDIME] on Escherichia coli.
0.12

Output reported MIC of the compound CCN1CCN(C(=O)N[C@@H](C(=O)N[C@@H]2C(=O)N3[C@@H]2SC(C)(C)[C@@H]3C(=O)O)c2ccccc2)C(=O)C1=O [PIPERACILLIN] on Escherichia coli.
32

Please tell me the measured MIC for CO[C@@]1(NC(=O)C(C(=O)O)c2ccc(O)cc2)C(=O)N2C(C(=O)O)=C(CSc3nnnn3C)CO[C@@H]21 (some centres undefined) [MOXALACTAM] ; system: Escherichia coli.
0.25

====

test system: Escherichia coli; experiment: Antimicrobial activity against Escherichia coli BL21(DE3) by agar-dilution technique; type: functional
value type: MIC
The answer should read as a number with its unit following.

Lab note: record MIC of CCN1CCN(C(=O)N[C@@H](C(=O)N[C@@H]2C(=O)N3[C@@H]2SC(C)(C)[C@@H]3C(=O)O)c2ccccc2)C(=O)C1=O [PIPERACILLIN] tested on Escherichia coli.
1 µg/mL

Tell me its MIC on Escherichia coli: CO/N=C(\C(=O)N[C@@H]1C(=O)N2C(C(=O)O)=C(COC(N)=O)CS[C@H]12)c1ccco1 [CEFUROXIME]
0.5 µg/mL

====

test system: Escherichia coli; test: Antimicrobial activity against Escherichia coli BL21(DE3) by agar-dilution technique; format: functional
value type: MIC (µg/mL)
Reply with just the number (in µg/mL).

structure smiles string | assay result
CO/N=C(\C(=O)N[C@@H]1C(=O)N2C(C(=O)[O-])=C(C[n+]3cccc4c3CCC4)CS[C@H]12)c1csc(N)n1 | 0.06
CO/N=C(\C(=O)N[C@@H]1C(=O)N2C(C(=O)[O-])=C(C[N+]3(C)CCCC3)CS[C@H]12)c1csc(N)n1 | 0.06

Here is the next item to consider.
Determine reported MIC for CC(C)(O/N=C(\C(=O)N[C@@H]1C(=O)N2C(C(=O)[O-])=C(C[n+]3ccccc3)CS[C@H]12)c1csc(N)n1)C(=O)O ; test system: Escherichia coli.
0.06
